Entries and their pIC50
# Measured on: HSD17B13 (Homo sapiens, UniProt Q7Z5P4)
# Sequence (Q7Z5P4 20-300): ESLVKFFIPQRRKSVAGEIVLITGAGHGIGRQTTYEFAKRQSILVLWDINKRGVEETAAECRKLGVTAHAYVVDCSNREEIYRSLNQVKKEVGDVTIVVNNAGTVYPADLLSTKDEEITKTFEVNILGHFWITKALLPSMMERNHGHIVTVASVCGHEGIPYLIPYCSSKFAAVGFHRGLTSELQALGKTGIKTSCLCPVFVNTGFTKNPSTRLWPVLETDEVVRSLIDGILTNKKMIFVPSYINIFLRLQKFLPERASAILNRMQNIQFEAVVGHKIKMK
pIC50: −log10 of the molar value.

The reported value for O=C(Nc1cc(Cl)sc1C(=O)NCCc1ccccc1OC(F)(F)F)c1ccc(O)c(C(F)(F)F)n1 in terms of pIC50 is 6.30 to 7.00

The reported value for O=C(Nc1cccc2ncn(CCc3ccccc3OC(F)(F)F)c(=O)c12)c1ccc(O)c(C(F)(F)F)n1 in terms of pIC50 is ≥ 7.00

The reported value for O=C(Nc1cccc2ncn(Cc3ccccc3OC(F)(F)F)c(=O)c12)c1ccc(O)c(C(F)(F)F)n1 in terms of pIC50 is ≥ 7.00

The reported value for O=C(Nc1cccc2ncn(CCc3ccccc3C(F)(F)F)c(=O)c12)c1ccc(O)c(C(F)(F)F)n1 in terms of pIC50 is 6.30 to 7.00

The reported value for CC(C)(C)CCNC(=O)c1sccc1NC(=O)c1ccc(O)c(C(F)(F)F)n1 in terms of pIC50 is ≥ 7.00

src = patent US12617772B2
